target: HIV-1 integrase (IN) (Human immunodeficiency virus type 1 group M subtype B, UniProt P12497); experiment: In vitro integrase catalytic assay, strand transfer (ST); assay type: biochemical; conditions: 400 nM IN, 20 nM 32P-labeled pre-cleaved 19T/21B DNA, 37 °C, 2 h
Where a SMILES comes first, the peptide text is derived from it.
measurement_name: IC50 (µM)
Your answer is read as µM, so omit the unit and give the number.

{"compound": "CC[C@H](C)[C@H](NC(=O)[C@H](CCCNC(=N)N)NC(=O)[C@H](Cc1ccccc1)NC(=O)[C@H](C)NC(=O)[C@@H](NC(=O)[C@@H](N)Cc1ccccc1)[C@@H](C)CC)C(=O)NCC(N)=O [Peptide 6b, FIAFRIG-amide] (H-FIAFRIG-NH2)", "quantitative_readout": 35}

Please turn your attention to the following entry.
Fill blank: measured IC50 of the compound CC[C@H](C)[C@H](NC(=O)[C@H](CCCNC(=N)N)NC(=O)[C@H](Cc1ccccc1)NC(=O)[C@H](Cc1c[nH]cn1)NC(=O)[C@@H](NC(=O)[C@H](Cc1ccccc1)NC(C)=O)[C@@H](C)CC)C(=O)NCC(N)=O [Peptide 1c, Ac-FIHFRIG-amide] (Ac-FIHFRIG-NH2) is ____.
4.7

Reference source for all entries: paper PMC6222646
